Target: Human recombinant liver glycogen phosphorylase a (hrl GPa) (Homo sapiens)
Sequence (P06737 whole entry): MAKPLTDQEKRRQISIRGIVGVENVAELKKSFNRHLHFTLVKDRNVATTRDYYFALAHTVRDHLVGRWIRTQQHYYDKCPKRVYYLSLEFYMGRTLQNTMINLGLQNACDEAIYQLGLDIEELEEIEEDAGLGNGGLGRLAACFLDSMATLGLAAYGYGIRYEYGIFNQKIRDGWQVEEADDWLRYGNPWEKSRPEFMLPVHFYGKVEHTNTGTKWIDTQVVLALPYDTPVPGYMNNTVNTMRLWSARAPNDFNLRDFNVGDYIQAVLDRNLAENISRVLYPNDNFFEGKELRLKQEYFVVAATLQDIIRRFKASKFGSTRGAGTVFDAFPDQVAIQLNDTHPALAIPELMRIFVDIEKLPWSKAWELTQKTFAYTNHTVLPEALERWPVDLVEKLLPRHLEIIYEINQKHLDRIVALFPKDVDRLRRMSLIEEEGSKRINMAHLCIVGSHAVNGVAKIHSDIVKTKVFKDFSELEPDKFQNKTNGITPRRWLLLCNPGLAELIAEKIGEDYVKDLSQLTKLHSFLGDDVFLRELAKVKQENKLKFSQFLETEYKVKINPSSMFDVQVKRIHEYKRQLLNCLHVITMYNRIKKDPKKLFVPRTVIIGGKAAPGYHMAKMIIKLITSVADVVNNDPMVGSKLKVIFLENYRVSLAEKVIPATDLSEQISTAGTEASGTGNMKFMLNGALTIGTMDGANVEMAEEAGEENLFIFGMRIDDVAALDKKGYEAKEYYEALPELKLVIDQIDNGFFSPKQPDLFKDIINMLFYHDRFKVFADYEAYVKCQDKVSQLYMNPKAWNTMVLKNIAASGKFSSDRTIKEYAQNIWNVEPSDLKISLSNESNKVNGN
Experiment: Glycogen phosphorylase a inhibition, glycogen degradation, multienzyme coupled assay (NADH fluorescence)
Conditions: hrl GPa 20 nM, 6 hours at 30° C.
Procedure: The activity of the compounds is alternatively determined by measuring the inhibitory effect of the compounds on glycogen degradation, the production of glucose-1-phosphate from glycogen is monitored by the multienzyme coupled assay, as described in EP 0 846 464 A2, general method of Pesce et al (Pesce, M A, Bodourian, S H, Harris, R C, and Nicholson, J F (1977) Clinical Chemistry 23, 1171–1717). […] Relative Fluoresence Units (RFUs) are measured at 340 nm excitation, 465 nm emission. […]
quantity kind: pIC50
Field pIC50 (float): negative decimal logarithm of the concentration in molar.

# input Note down pIC50 recorded for COC(=O)c1ncoc1[C@H](Cc1ccccc1)NC(=O)c1cc2cc(Cl)ccc2[nH]1 [Example 1]
# output 5.62
